Assay: Cytotoxicity against human HEK293 assessed as reduction in cell viability incubated for 24 hrs by AlamarBlue assay
Assay type: cell-based
Conditions: HEK293 cells, read-out: INH
metric-name: cytotoxicity at 24 h (%)
Express it in %; write the number only.

Input COc1ccc(C(=O)NO)cc1NCc1ccc(OCCCCC(=O)Nc2ccc3c(c2)cc(C)c(=O)n3C)cc1 , output reported cytotoxicity at 24 h.
15

* * *

Tested on: HL-60
Assay: Antiproliferative activity against human HL60 assessed as reduction in cell growth at 4 uM by CellTiter-non radioactive cell proliferation assay
Format: functional
The reader will find reported inhibition at 4 µM values listed item by item below.
Express it in %; write the number only.

Field: example entries. Status: answers known.
- Cc1cc2cc(NS(=O)(=O)Cc3cccc(C(=O)NO)c3)ccc2n(C)c1=O: 0
- COc1ccc(C(=O)NO)cc1NCc1ccc(OCCCCC(=O)Nc2ccc3c(c2)cc(C)c(=O)n3C)cc1: 0
- COc1ccc(C(=O)NO)cc1S(=O)(=O)Nc1ccc2c(c1)cc(C)c(=O)n2C: 25
- COc1ccc(C(=O)NO)cc1CS(=O)(=O)Nc1ccc2c(c1)cc(C)c(=O)n2C: 0
- COc1cc(C(=O)NO)ccc1CS(=O)(=O)Nc1ccc2c(c1)cc(C)c(=O)n2C: 0

Lab note: HL-60 assay, enter inhibition at 4 µM for Cc1cc2cc(NS(=O)(=O)c3cc(C(=O)NO)ccc3Cl)ccc2n(C)c1=O here
29

Lab note: HL-60 assay, enter inhibition at 4 µM for COC(=O)c1ccc(OC)c(S(=O)(=O)Nc2ccc3c(c2)cc(C)c(=O)n3C)c1 here
39

* * *

Molecular target: Histone deacetylase 1 (Homo sapiens, UniProt Q13547)
Sequence (Q13547 whole entry): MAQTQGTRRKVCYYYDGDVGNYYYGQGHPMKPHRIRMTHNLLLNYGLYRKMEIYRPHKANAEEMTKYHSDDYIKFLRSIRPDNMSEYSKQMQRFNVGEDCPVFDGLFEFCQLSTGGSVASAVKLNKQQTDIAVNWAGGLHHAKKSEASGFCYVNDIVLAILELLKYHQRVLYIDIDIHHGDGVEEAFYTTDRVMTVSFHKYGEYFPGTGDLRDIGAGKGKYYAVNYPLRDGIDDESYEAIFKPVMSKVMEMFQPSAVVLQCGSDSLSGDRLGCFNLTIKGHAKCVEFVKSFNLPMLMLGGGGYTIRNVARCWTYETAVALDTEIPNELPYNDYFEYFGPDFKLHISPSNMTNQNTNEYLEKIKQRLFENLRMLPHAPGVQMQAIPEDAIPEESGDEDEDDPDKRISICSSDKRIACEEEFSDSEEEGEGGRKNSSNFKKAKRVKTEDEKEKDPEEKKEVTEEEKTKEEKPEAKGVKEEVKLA
Experiment: Inhibition of recombinant human HDAC1 at 10 uM using Z-(Ac)Lys-AMC as substrate after 90 mins by fluorescence based micro plate assay
metric-name: inhibition (%)
Express it in %; write the number only.

Field: example entries. Status: answers known.
• COc1ccc(C(=O)NO)cc1S(=O)(=O)Nc1ccc2c(c1)cc(C)c(=O)n2C = 38
• Cc1cc2cc(NS(=O)(=O)Cc3cccc(C(=O)NO)c3)ccc2n(C)c1=O = 26
• COc1ccc(C(=O)NO)cc1CNc1ccc2c(c1)cc(C)c(=O)n2C = 31
• Cc1cc2cc(NS(=O)(=O)c3cc(C(=O)NO)ccc3Cl)ccc2n(C)c1=O = 31
• COc1cc(C(=O)NO)ccc1CS(=O)(=O)Nc1ccc2c(c1)cc(C)c(=O)n2C = 29

Input COc1ccc(C(=O)NO)cc1CS(=O)(=O)Nc1ccc2c(c1)cc(C)c(=O)n2C , output reported inhibition.
29

Input Cc1cc2cc(NCc3cc(C(=O)NO)ccc3Cl)ccc2n(C)c1=O , output reported inhibition.
20

* * *

The reader will find reported inhibition at 100 µM values listed item by item below.
Tested on: HL-60
Assay: Antiproliferative activity against human HL60 assessed as reduction in cell growth at 100 uM by CellTiter-non radioactive cell proliferation assay
Format: functional
Express it in %; write the number only.

• COc1ccc(C(=O)NOCc2ccc(OC(C)=O)cc2)cc1S(=O)(=O)Nc1ccc2c(c1)cc(C)c(=O)n2C = 95
• Cc1cc2cc(NS(=O)(=O)c3ccc(C(=O)NO)cc3)ccc2n(C)c1=O = 34
• COc1ccc(C(=O)NO)cc1S(=O)(=O)Nc1ccc2c(c1)cc(C)c(=O)n2C = 39
• COc1ccc(C(=O)NO)cc1NCc1ccc(OCCCCC(=O)Nc2ccc3c(c2)cc(C)c(=O)n3C)cc1 = 0

Input COC(=O)c1ccc(CS(=O)(=O)Nc2ccc3c(c2)cc(C)c(=O)n3C)cc1 , output reported inhibition at 100 µM.
78
